# protocolDescription: Hydrolysis by rat intestinal acetone powder
# Format: in vitro ADME
# conditionContext: pH 6.0, 37°C., 18 hours
observable: Saccharide composition of hydrolysate by rat intestinal acetone powder: Glucose (%)

molSmiles: OC[C@H]1O[C@H](O[C@H]2O[C@H](CO)[C@@H](O[C@H]3O[C@H](CO)[C@@H](O)[C@H](O)[C@H]3O)[C@H](O)[C@H]2O)[C@H](O)[C@@H](O)[C@@H]1O
quantitativeResult: 37.2
--
molSmiles: OC[C@H]1O[C@H](O[C@H]2O[C@H](CO)[C@@H](O[C@H]3O[C@H](CO)[C@@H](O[C@H]4O[C@H](CO)[C@@H](O)[C@H](O)[C@H]4O)[C@H](O)[C@H]3O)[C@H](O)[C@H]2O)[C@H](O)[C@@H](O)[C@@H]1O
quantitativeResult: 52.5
--
molSmiles: OC[C@H]1O[C@H](O[C@H]2O[C@H](CO)[C@@H](O[C@H]3O[C@H](CO)[C@@H](O[C@H]4O[C@H](CO)[C@@H](O[C@H]5O[C@H](CO)[C@@H](O)[C@H](O)[C@H]5O)[C@H](O)[C@H]4O)[C@H](O)[C@H]3O)[C@H](O)[C@H]2O)[C@H](O)[C@@H](O)[C@@H]1O
quantitativeResult: 62.0
--
molSmiles: OC[C@H]1O[C@H](O[C@H]2O[C@H](CO)[C@@H](O[C@H]3O[C@H](CO)[C@@H](O[C@H]4O[C@H](CO)[C@@H](O[C@H]5O[C@H](CO)[C@@H](O[C@H]6O[C@H](CO)[C@@H](O[C@H]7O[C@H](CO)[C@@H](O)[C@H](O)[C@H]7O)[C@H](O)[C@H]6O)[C@H](O)[C@H]5O)[C@H](O)[C@H]4O)[C@H](O)[C@H]3O)[C@H](O)[C@H]2O)[C@H](O)[C@@H](O)[C@@H]1O
quantitativeResult: 73.4
--
molSmiles: OC[C@H]1O[C@H](O[C@H]2O[C@H](CO)[C@@H](O[C@H]3O[C@H](CO)[C@@H](O[C@H]4O[C@H](CO)[C@@H](O[C@H]5O[C@H](CO)[C@@H](O[C@H]6O[C@H](CO)[C@@H](O)[C@H](O)[C@H]6O)[C@H](O)[C@H]5O)[C@H](O)[C@H]4O)[C@H](O)[C@H]3O)[C@H](O)[C@H]2O)[C@H](O)[C@@H](O)[C@@H]1O
quantitativeResult: 68.8

* * *

# Tested on: non-reducing saccharide-forming enzyme
# Format: biochemical, Rhizobium sp. M-11
# conditionContext: non-reducing saccharide-forming enzyme, 48 h, pH 7
observable: Percentage of remaining substrate on HPLC

compound: OC[C@H]1O[C@H](O[C@H]2[C@H](O)[C@@H](O)[C@@H](O[C@H]3[C@H](O)[C@@H](O)[C@@H](O[C@H]4[C@H](O)[C@@H](O)[C@@H](O[C@H]5[C@H](O)[C@@H](O)[C@@H](O[C@H]6[C@H](O)[C@@H](O)C(O)O[C@@H]6CO)O[C@@H]5CO)O[C@@H]4CO)O[C@@H]3CO)O[C@@H]2CO)[C@H](O)[C@@H](O)[C@@H]1O (some centres unmarked) [Maltohexaose]
targetSystem: non-reducing saccharide-forming enzyme
result: 6.5%
//
compound: OC[C@H]1O[C@H](O[C@H]2[C@H](O)[C@@H](O)[C@@H](O[C@H]3[C@H](O)[C@@H](O)[C@@H](O[C@H]4[C@H](O)[C@@H](O)[C@@H](O[C@H]5[C@H](O)[C@@H](O)C(O)O[C@@H]5CO)O[C@@H]4CO)O[C@@H]3CO)O[C@@H]2CO)[C@H](O)[C@@H](O)[C@@H]1O (some centres unmarked) [Maltopentaose]
targetSystem: non-reducing saccharide-forming enzyme
result: 7.3%

* * *

# protocolDescription: Hydrolysis by rat intestinal acetone powder
# Format: in vitro ADME
# conditionContext: pH 6.0, 37°C., 18 hours
1 means recorded Saccharide composition of hydrolysate by rat intestinal acetone powder: Trehalose is 40% or above; -1 means it is below 40%.

molSmiles: OC[C@H]1O[C@H](O[C@H]2O[C@H](CO)[C@@H](O[C@H]3O[C@H](CO)[C@@H](O[C@H]4O[C@H](CO)[C@@H](O[C@H]5O[C@H](CO)[C@@H](O[C@H]6O[C@H](CO)[C@@H](O)[C@H](O)[C@H]6O)[C@H](O)[C@H]5O)[C@H](O)[C@H]4O)[C@H](O)[C@H]3O)[C@H](O)[C@H]2O)[C@H](O)[C@@H](O)[C@@H]1O
assignedClass: -1
--
molSmiles: OC[C@H]1O[C@H](O[C@H]2O[C@H](CO)[C@@H](O[C@H]3O[C@H](CO)[C@@H](O[C@H]4O[C@H](CO)[C@@H](O)[C@H](O)[C@H]4O)[C@H](O)[C@H]3O)[C@H](O)[C@H]2O)[C@H](O)[C@@H](O)[C@@H]1O
assignedClass: 1
--
molSmiles: OC[C@H]1O[C@H](O[C@H]2O[C@H](CO)[C@@H](O[C@H]3O[C@H](CO)[C@@H](O[C@H]4O[C@H](CO)[C@@H](O[C@H]5O[C@H](CO)[C@@H](O[C@H]6O[C@H](CO)[C@@H](O[C@H]7O[C@H](CO)[C@@H](O)[C@H](O)[C@H]7O)[C@H](O)[C@H]6O)[C@H](O)[C@H]5O)[C@H](O)[C@H]4O)[C@H](O)[C@H]3O)[C@H](O)[C@H]2O)[C@H](O)[C@@H](O)[C@@H]1O
assignedClass: -1
--
molSmiles: OC[C@H]1O[C@H](O[C@H]2O[C@H](CO)[C@@H](O[C@H]3O[C@H](CO)[C@@H](O[C@H]4O[C@H](CO)[C@@H](O[C@H]5O[C@H](CO)[C@@H](O)[C@H](O)[C@H]5O)[C@H](O)[C@H]4O)[C@H](O)[C@H]3O)[C@H](O)[C@H]2O)[C@H](O)[C@@H](O)[C@@H]1O
assignedClass: -1
--
molSmiles: OC[C@H]1O[C@H](O[C@H]2O[C@H](CO)[C@@H](O[C@H]3O[C@H](CO)[C@@H](O)[C@H](O)[C@H]3O)[C@H](O)[C@H]2O)[C@H](O)[C@@H](O)[C@@H]1O
assignedClass: 1

* * *

# protocolDescription: Maillard reaction with glycine, absorbance at 480 nm
# Assay type: physicochemical
# conditionContext: one % glycine, 10% saccharide, pH 7.0, 100°C., 90 min, 1-cm cell
Reported Coloration degree (480 nm) is given for each of the following molecules.

molecule: OC[C@H]1O[C@H](O[C@H]2[C@H](O)[C@@H](O)[C@@H](O[C@H]3[C@H](O)[C@@H](O)[C@@H](O[C@H]4[C@H](O)[C@@H](O)[C@@H](O[C@H]5[C@H](O)[C@@H](O)[C@@H](O[C@H]6[C@H](O)[C@@H](O)C(O)O[C@@H]6CO)O[C@@H]5CO)O[C@@H]4CO)O[C@@H]3CO)O[C@@H]2CO)[C@H](O)[C@@H](O)[C@@H]1O (stereo partly shown) [Maltohexaose]
Coloration degree (480 nm): 0.318

molecule: OC[C@H]1O[C@H](O[C@H]2[C@H](O)[C@@H](O)[C@@H](O[C@H]3[C@H](O)[C@@H](O)C(O)O[C@@H]3CO)O[C@@H]2CO)[C@H](O)[C@@H](O)[C@@H]1O (stereo partly shown) [Maltotriose]
Coloration degree (480 nm): 0.623

molecule: OC[C@H]1O[C@H](O[C@H]2O[C@H](CO)[C@@H](O[C@H]3O[C@H](CO)[C@@H](O)[C@H](O)[C@H]3O)[C@H](O)[C@H]2O)[C@H](O)[C@@H](O)[C@@H]1O [P I, α-glucosyltrehalose]
Coloration degree (480 nm): 0.027

molecule: OC[C@H]1O[C@H](O[C@H]2[C@H](O)[C@@H](O)[C@@H](O[C@H]3[C@H](O)[C@@H](O)[C@@H](O[C@H]4[C@H](O)[C@@H](O)[C@@H](O[C@H]5[C@H](O)[C@@H](O)[C@@H](O[C@H]6[C@H](O)[C@@H](O)[C@@H](O[C@H]7[C@H](O)[C@@H](O)C(O)O[C@@H]7CO)O[C@@H]6CO)O[C@@H]5CO)O[C@@H]4CO)O[C@@H]3CO)O[C@@H]2CO)[C@H](O)[C@@H](O)[C@@H]1O (stereo partly shown) [Maltoheptaose]
Coloration degree (480 nm): 0.271

* * *

# System: glucoamylase
# protocolDescription: Enzymatic hydrolysis by glucoamylase
# Assay type: biochemical
# conditionContext: one unit glucoamylase, pH 4.5, 40°C., 6 hours
Reported Molecular ratio (Glucose/Trehalose) is given for each of the following compounds.

compound: OC[C@H]1O[C@H](O[C@H]2O[C@H](CO)[C@@H](O[C@H]3O[C@H](CO)[C@@H](O[C@H]4O[C@H](CO)[C@@H](O)[C@H](O)[C@H]4O)[C@H](O)[C@H]3O)[C@H](O)[C@H]2O)[C@H](O)[C@@H](O)[C@@H]1O [P II, α-maltosyltrehalose]
Molecular ratio (Glucose/Trehalose): 2.06

compound: OC[C@H]1O[C@H](O[C@H]2O[C@H](CO)[C@@H](O[C@H]3O[C@H](CO)[C@@H](O[C@H]4O[C@H](CO)[C@@H](O[C@H]5O[C@H](CO)[C@@H](O[C@H]6O[C@H](CO)[C@@H](O)[C@H](O)[C@H]6O)[C@H](O)[C@H]5O)[C@H](O)[C@H]4O)[C@H](O)[C@H]3O)[C@H](O)[C@H]2O)[C@H](O)[C@@H](O)[C@@H]1O [P IV, α-maltotetraosyltrehalose]
Molecular ratio (Glucose/Trehalose): 4.09

compound: OC[C@H]1O[C@H](O[C@H]2O[C@H](CO)[C@@H](O[C@H]3O[C@H](CO)[C@@H](O[C@H]4O[C@H](CO)[C@@H](O[C@H]5O[C@H](CO)[C@@H](O)[C@H](O)[C@H]5O)[C@H](O)[C@H]4O)[C@H](O)[C@H]3O)[C@H](O)[C@H]2O)[C@H](O)[C@@H](O)[C@@H]1O [P III, α-maltotriosyltrehalose]
Molecular ratio (Glucose/Trehalose): 3.02

compound: OC[C@H]1O[C@H](O[C@H]2O[C@H](CO)[C@@H](O[C@H]3O[C@H](CO)[C@@H](O[C@H]4O[C@H](CO)[C@@H](O[C@H]5O[C@H](CO)[C@@H](O[C@H]6O[C@H](CO)[C@@H](O[C@H]7O[C@H](CO)[C@@H](O)[C@H](O)[C@H]7O)[C@H](O)[C@H]6O)[C@H](O)[C@H]5O)[C@H](O)[C@H]4O)[C@H](O)[C@H]3O)[C@H](O)[C@H]2O)[C@H](O)[C@@H](O)[C@@H]1O [P V, α-maltopentaosyltrehalose]
Molecular ratio (Glucose/Trehalose): 5.11

compound: OC[C@H]1O[C@H](O[C@H]2O[C@H](CO)[C@@H](O[C@H]3O[C@H](CO)[C@@H](O)[C@H](O)[C@H]3O)[C@H](O)[C@H]2O)[C@H](O)[C@@H](O)[C@@H]1O [P I, α-glucosyltrehalose]
Molecular ratio (Glucose/Trehalose): 1.07
